List of percentage damage caused to the plant, SOLNI values.
test system: Solanum nigrum (SOLNI); experiment: Post-emergence herbicide test, glasshouse, percentage damage; type: in vivo; details: 1000 g/ha, evaluated after 13 days
measurementType: percentage damage caused to the plant, SOLNI

• Fc1cc(Cl)cnc1Oc1c(Cl)cccc1-c1cc(C(F)F)no1 [Compound A95] = 4 (4=61-80%)
• CS(=O)(=O)c1cnc(Oc2cccc(F)c2-c2cc(C(F)F)no2)c(F)c1 [Compound A39] = 3 (3=41-60%)
• COc1cccc(Oc2ncc(Cl)cc2F)c1-n1cc(C(F)(F)F)cn1 [Compound A36] = 5 (5=81-100%)
• Fc1cc(Br)cnc1Oc1cccc(Br)c1-c1cc(C(F)F)no1 [Compound A103] = 5 (5=81-100%)
• Fc1ccc(Oc2cccc(F)c2-c2cc(C(F)F)no2)nc1F [Compound A50] = 5 (5=81-100%)
• N#Cc1cccc(Oc2ccc(Cl)cn2)c1-c1cc(C(F)F)no1 [Compound A161] = 5 (5=81-100%)
• Fc1cc(Cl)cnc1Oc1ccccc1-c1cc(C(F)(F)F)cs1 [Compound A97] = 4 (4=61-80%)
• Fc1cccc(Oc2cccc(Br)c2-c2cc(C(F)F)no2)n1 [Compound A98] = 4 (4=61-80%)
• N#Cc1ccnc(Oc2cccc(Cl)c2-c2cc(C(F)F)no2)c1 [Compound A91] = 4 (4=61-80%)

* * *

test system: Solanum nigrum (SOLNI); assay: Post-emergence herbicide test, glasshouse, percentage damage; format: in vivo; details: 1000 g/ha, evaluated after 13 days
# percentage damage caused to the plant, SOLNI per entry
measurementType: percentage damage caused to the plant, SOLNI

• Fc1cccc(Oc2cc(C(F)(F)F)c(C(F)(F)F)cn2)c1-c1cc(C(F)F)no1 = 4 (4=61-80%)
• N#Cc1cccc(Oc2ncc(Cl)cc2F)c1-c1cc(C(F)F)no1 = 5 (5=81-100%)
• Fc1cc(Cl)cnc1Oc1c(Br)cccc1-c1cc(C(F)F)no1 = 4 (4=61-80%)
• Fc1cc(Cl)cnc1Oc1ccccc1-c1cc(C(F)F)no1 = 5 (5=81-100%)

* * *

tested on: Solanum nigrum (SOLNI); test: Post-emergence herbicide test, glasshouse, percentage damage; assay type: in vivo; details: 1000 g/ha, evaluated after 13 days
Parameter percentage damage caused to the plant, SOLNI: see the listing below.
measurementType: percentage damage caused to the plant, SOLNI

* O=[N+]([O-])c1ccc(Oc2cccc(Cl)c2-c2cc(C(F)F)no2)nc1 | 4 (4=61-80%)
* Fc1cc(Cl)cnc1Oc1cccc(Br)c1-n1cc(C(F)(F)F)cn1 | 5 (5=81-100%)
* Cc1cccc(-c2cc(C(F)F)no2)c1Oc1ncc(Cl)cc1F | 4 (4=61-80%)
* FC(F)c1cc(-c2c(Cl)cccc2Oc2ccc(Cl)cn2)on1 | 4 (4=61-80%)
* Fc1cc(Cl)cnc1Oc1ccccc1-n1ncc(C(F)(F)F)n1 | 4 (4=61-80%)
* N#Cc1ccc(Oc2cccc(Cl)c2-c2cc(C(F)F)no2)nc1 | 5 (5=81-100%)
* Fc1cc(Cl)cnc1Oc1ccccc1-c1ccc(Cl)s1 | 5 (5=81-100%)

* * *

Reported values of Pre-emergence Test LOLPE percentage damage (five point scale) for individual entries
Tested on: Lolium perenne (LOLPE)
Test: Pre-emergence herbicide test, glasshouse, percentage damage
Type: in vivo
Details: rate 1000 g/ha, evaluated after 13 days
Method: Seeds of a variety of test species are sown in standard soil in pots (Lolium perenne (LOLPE), Solanum nigrum (SOLNI), Amaranthus retoflexus (AMARE), Setaria faberi (SETFA), Echinochloa crus-galli (ECHCG), Ipomoea hederacea (IPOHE)). […] After 13 days for pre and post-emergence, the test is evaluated for the percentage damage caused to the plant. […]
measurementType: Pre-emergence Test LOLPE percentage damage (five point scale)

- Fc1cccc(Oc2cccc(Br)c2-c2cc(C(F)F)no2)n1: 3 (3=41-60%)
- Fc1cc(Cl)cnc1Oc1c(Br)cccc1-c1cc(C(F)F)no1: 1 (1=0-20%)
- Fc1cc(Cl)cnc1Oc1c(Cl)cccc1-c1cc(C(F)F)no1: 1 (1=0-20%)
- FC(F)c1cc(-c2c(Br)cccc2Oc2ccc(Br)cn2)on1: 5 (5=81-100%)
- N#Cc1cccc(Oc2ncc(Cl)cc2F)c1-c1cc(C(F)F)no1: 5 (5=81-100%)
- FC(F)c1cc(-c2c(Cl)cccc2Oc2ccc(Br)cn2)on1: 5 (5=81-100%)
- Fc1cc(Cl)cnc1Oc1cccc(F)c1-c1cc(C(F)(F)F)on1: 5 (5=81-100%)
- Fc1cc(Cl)cnc1Oc1ccccc1-c1cc(C(F)(F)F)cs1: 2 (2=21-40%)
- FC(F)(F)c1cnn(-c2ccccc2Oc2ccc(Cl)cn2)c1: 5 (5=81-100%)
- Fc1cc(Br)cnc1Oc1cccc(Cl)c1-c1cc(C(F)F)no1: 5 (5=81-100%)
- N#Cc1cccc(Oc2ccc(Cl)cn2)c1-c1cc(C(F)F)no1: 5 (5=81-100%)

Origin of the recorded values: patent US12227495B2
